# System: Staphylococcus aureus
# methodDescription: Antibacterial activity against methicillin/ceftriaxone-resistant Staphylococcus aureus NRS10194 clinical isolate assessed as bacterial growth inhibition incubated for 16 to 18 hrs by CLSI based antibiotic susceptibility testing method
# Format: functional
# appliedConditions: time 16-18 hrs
readout: MIC (µg/mL)
Give just the number in µg/mL; leave the unit off.

// MIC lookup, molecule = `O=C1c2cccc3cccc(c23)C(=O)N1CCN1CCN(C(=S)NC2CCCCC2)CC1` , result: 0.25

* * *

# Test system: Acinetobacter baumannii
# methodDescription: Antibacterial activity against Acinetobacter baumannii BAA 1605 assessed as bacterial growth inhibition incubated for 16 to 18 hrs by CLSI based antibiotic susceptibility testing method
# Type: functional, organism-based
# appliedConditions: time 16-18 hrs
Activity calls are given as the source filed them. The calls are words filed in the database; no cut-off is given here.
readout: growth inhibition (GI)

O=C(CN1C(=O)c2cccc3cccc(c23)C1=O)NC1CCN(C(=S)NC2CCCC2)CC1    inactive
Cc1ccc(NC(=S)N2CCN(CCN3C(=O)c4cccc5cccc(c45)C3=O)CC2)cc1    inactive
O=C1c2cccc3cccc(c23)C(=O)N1CCN1CCN(C(=S)NC2CC2)CC1    inactive
O=C(CN1C(=O)c2cccc3cccc(c23)C1=O)N1CCC(NC(=S)NC2CCCCC2)CC1    inactive
O=C1c2cccc3cccc(c23)C(=O)N1CCN1CCN(C(=S)NC2CCCC2)CC1    inactive

Bench note, Acinetobacter baumannii: entry `O=C(CN1C(=O)c2cccc3cccc(c23)C1=O)NC1CCN(C(=S)NC2CCCCCC2)CC1` , its growth inhibition (GI) = inactive

Bench note, Acinetobacter baumannii: entry `O=C1c2cccc3cccc(c23)C(=O)N1CCN1CCN(C(=S)Nc2ccccc2Cl)CC1` , its growth inhibition (GI) = inactive

Bench note, Acinetobacter baumannii: entry `O=C(CN1C(=O)c2cccc3cccc(c23)C1=O)N1CCC(NC(=S)Nc2ccccc2)CC1` , its growth inhibition (GI) = inactive

Bench note, Acinetobacter baumannii: entry `O=C(CN1C(=O)c2cccc3cccc(c23)C1=O)N1CCN(C(=S)Nc2ccccc2)CC1` , its growth inhibition (GI) = inactive

* * *

# Test system: Staphylococcus aureus
# methodDescription: Antibacterial activity against methicillin/ceftriaxone/meropenem-resistant Staphylococcus aureus NRS10191 clinical isolate assessed as bacterial growth inhibition incubated for 16 to 18 hrs by CLSI based antibiotic susceptibility testing method
# Format: functional
# appliedConditions: time 16-18 hrs
readout: MIC

O=C(CN1C(=O)c2cccc3cccc(c23)C1=O)N1CCC(NC(=S)NC2CCCCC2)CC1    0.125 µg/mL
O=C(CN1C(=O)c2cccc3cccc(c23)C1=O)NC1CCN(C(=S)NC2CCCCCC2)CC1    0.5 µg/mL
O=C1c2cccc3cccc(c23)C(=O)N1CCN1CCN(C(=S)NC2CCCC2)CC1    0.125 µg/mL

Bench note, Staphylococcus aureus: entry `O=C(CN1C(=O)c2cccc3cccc(c23)C1=O)NC1CCN(C(=S)Nc2ccccc2)CC1` , its MIC = 2 µg/mL

Bench note, Staphylococcus aureus: entry `C[C@@H](O)[C@H]1C(=O)N2C(C(=O)O)=C(S[C@@H]3CN[C@H](C(=O)N(C)C)C3)[C@H](C)[C@H]12` , its MIC = 64 µg/mL

Bench note, Staphylococcus aureus: entry `O=C(CN1C(=O)c2cccc3cccc(c23)C1=O)N1CCC(NC(=S)NC2CCCCCC2)CC1` , its MIC = 0.25 µg/mL
